Test: in vivo
Details: Sprague-Dawley, rat, iv, 2 mg/kg
readoutType: clearance (mL/min/kg)
Answer format: numeric, mL/min/kg implied, no suffix.

Briefly, clearance measured for Fc1cccc(F)c1-c1ccc2[nH]nc(-c3cncc(O[C@H]4CNCCC45CC5)n3)c2c1 : 16.7

* * *

Assay: in vivo
Settings: Sprague-Dawley, rat, plasma, po, 5 mg/kg
readoutType: AUC (µM·h)
Answer format: numeric, µM·h implied, no suffix.

Briefly, AUC measured for Fc1cccc(F)c1-c1ccc2[nH]nc(-c3cncc(O[C@H]4CNCCC45CC5)n3)c2c1 : 12.2

Each recorded value in this set is attributed to ChEMBL document CHEMBL3392976.
